Property: logP; scope: individual molecules
- EXPERIMENT: method code SF-GLC,AS, from DOI: 10.2134/jeq1981.00472425001000030028x
QUANTITY NAME: logP

SMILES INPUT: Nc1c([N+](=O)[O-])cc(C(F)(F)F)cc1[N+](=O)[O-]
QUANTITY NAME: logP
OBSERVED: 2.29
--
SMILES INPUT: CCCNc1c([N+](=O)[O-])cc(C(F)(F)F)cc1[N+](=O)[O-]
QUANTITY NAME: logP
OBSERVED: 3.65

* * *

- EXPERIMENT: method code SF-AS, from PMID: 640322
- SETUP CONDITIONS: pH 4.0

SMILES INPUT: NC(=O)N(CCCCCCN(N=O)C(N)=O)N=O
logD: 0.58

SMILES INPUT: CCCCN(N=O)C(N)=O
logD: 1.04

* * *

SMILES INPUT: Nc1c(F)cc(F)cc1F
logP: 1.81
--
SMILES INPUT: OCc1ccc(Br)cc1
logP: 2.15
--
SMILES INPUT: OCc1ccccc1F
logP: 1.3

* * *

A collection of compounds and their measured logP
- EXPERIMENT: method code SF-AS, from DOI: 10.1584/jpestics.8.69
QUANTITY NAME: logP

COMPOUND: COc1ccc(C(C)c2ccc(OC)cc2)cc1
OBSERVED: 4.52
//
COMPOUND: COc1ccc(C(c2ccc(OC)cc2)C(C)[N+](=O)[O-])cc1 (stereo unspecified)
OBSERVED: 3.87
//
COMPOUND: COc1ccc(C(c2ccc(OC)cc2)C(F)(F)F)cc1
OBSERVED: 4.76
//
COMPOUND: ClC(Cl)(Cl)C(c1ccccc1)c1ccccc1
OBSERVED: 4.87
//
COMPOUND: COc1ccc(C(C[N+](=O)[O-])c2ccc(OC)cc2)cc1
OBSERVED: 3.57
//
COMPOUND: CCC(C(c1ccc(OC)cc1)c1ccc(OC)cc1)[N+](=O)[O-] (stereo unspecified)
OBSERVED: 4.45

* * *

- EXPERIMENT: method code G-GLC, from DOI: 10.1021/je00036a027

SMILES INPUT: Clc1cc(Cl)c(-c2ccccc2)c(Cl)c1
logP: 5.47
//
SMILES INPUT: Clc1c(Cl)c(Cl)c(-c2ccccc2)c(Cl)c1Cl
logP: 6.3
//
SMILES INPUT: Clc1cc(Cl)c(-c2ccccc2)cc1Cl
logP: 5.51
//
SMILES INPUT: Clc1cccc(Cl)c1-c1ccccc1
logP: 4.93

* * *

- EXPERIMENT: method code SF-HPLC, from DOI: 10.1023/a:1015837931256, PMID: 1788153
- SETUP CONDITIONS: pH 7.4
QUANTITY NAME: logD

SMILES INPUT: Nc1nc2c(ncn2COCCOC(=O)c2ccc(CN3CCOCC3)cc2)c(=O)[nH]1
OBSERVED: -0.05

* * *

logP listing for selected molecules.
- EXPERIMENT: method code SF-AS, from DOI: 10.1007/s001289900158, PMID: 8661463

SMILES INPUT: CCN(CC)c1nc(NN)nc(NN)n1
logP: 1.22

SMILES INPUT: CCN(CC)c1nc(Cl)nc(Cl)n1
logP: 2.17

SMILES INPUT: NNc1nc(NN)nc(N2CCOCC2)n1
logP: 0.62

SMILES INPUT: Clc1ccnc(Cl)n1
logP: 1.16
